For each entry below, report its pIC50 value.
Target: Dipeptidyl peptidase 4 (Rattus norvegicus)
Sequence (P14740 whole entry): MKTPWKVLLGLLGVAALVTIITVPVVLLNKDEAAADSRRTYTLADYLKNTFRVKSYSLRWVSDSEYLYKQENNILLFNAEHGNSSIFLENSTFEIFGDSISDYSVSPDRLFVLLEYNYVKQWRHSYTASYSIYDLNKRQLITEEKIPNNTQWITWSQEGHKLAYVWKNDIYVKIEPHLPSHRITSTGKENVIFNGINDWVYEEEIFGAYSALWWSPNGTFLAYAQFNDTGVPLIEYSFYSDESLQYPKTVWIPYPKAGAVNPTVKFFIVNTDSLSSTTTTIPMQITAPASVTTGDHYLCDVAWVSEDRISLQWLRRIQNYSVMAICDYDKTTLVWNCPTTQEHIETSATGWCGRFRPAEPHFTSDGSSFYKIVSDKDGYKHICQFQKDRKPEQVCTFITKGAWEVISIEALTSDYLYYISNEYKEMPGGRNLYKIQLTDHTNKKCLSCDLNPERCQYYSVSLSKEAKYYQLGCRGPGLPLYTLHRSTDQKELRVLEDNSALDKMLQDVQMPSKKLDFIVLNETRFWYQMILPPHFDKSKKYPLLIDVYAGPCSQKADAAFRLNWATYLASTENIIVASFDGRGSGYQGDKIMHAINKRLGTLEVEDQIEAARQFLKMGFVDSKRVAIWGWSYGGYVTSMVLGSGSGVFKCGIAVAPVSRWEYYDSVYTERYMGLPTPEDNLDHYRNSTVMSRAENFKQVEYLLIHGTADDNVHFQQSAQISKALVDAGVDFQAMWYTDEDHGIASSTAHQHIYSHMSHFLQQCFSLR
Experiment: Inhibition of DPP4 in rat plasma by fluorescence assay
Answers are plain numbers, as −log10 of the molar value.

CN(Cc1ccc(C#N)cc1)[C@@H]1CN[C@H](C(=O)N2CCSC2)C1 7.87

I need pIC50 for every entry listed below, if you could help.
1. O=C([C@@H]1C[C@H](N2CCc3cc(Cl)ccc32)CN1)N1CCSC1
2. O=C([C@@H]1C[C@H](N2CCc3cc(Br)ccc32)CN1)N1CCSC1
3. O=C([C@@H]1C[C@H](N2CCc3cc(F)ccc32)CN1)N1CCSC1
4. O=C([C@@H]1C[C@H](N2CCc3cc([N+](=O)[O-])ccc32)CN1)N1CCSC1

-- reply
[7.87, 7.97, 8.00, 7.99]

// each listed molecule needs a value for pIC50
1. COc1ccc(N[C@@H]2CN[C@H](C(=O)N3CCSC3)C2)cc1
2. N#Cc1ccc(CN(CCO)[C@@H]2CN[C@H](C(=O)N3CCSC3)C2)cc1
3. O=C([C@@H]1C[C@H](N2CCc3ccccc32)CN1)N1CCSC1

-- reply
7.26
7.64
7.71

Numbers sourced from ChEMBL document CHEMBL1144573.
